TARGET: PARP1 (Homo sapiens)
Construct: purchased BPS 80501
Sequence (P09874 whole entry): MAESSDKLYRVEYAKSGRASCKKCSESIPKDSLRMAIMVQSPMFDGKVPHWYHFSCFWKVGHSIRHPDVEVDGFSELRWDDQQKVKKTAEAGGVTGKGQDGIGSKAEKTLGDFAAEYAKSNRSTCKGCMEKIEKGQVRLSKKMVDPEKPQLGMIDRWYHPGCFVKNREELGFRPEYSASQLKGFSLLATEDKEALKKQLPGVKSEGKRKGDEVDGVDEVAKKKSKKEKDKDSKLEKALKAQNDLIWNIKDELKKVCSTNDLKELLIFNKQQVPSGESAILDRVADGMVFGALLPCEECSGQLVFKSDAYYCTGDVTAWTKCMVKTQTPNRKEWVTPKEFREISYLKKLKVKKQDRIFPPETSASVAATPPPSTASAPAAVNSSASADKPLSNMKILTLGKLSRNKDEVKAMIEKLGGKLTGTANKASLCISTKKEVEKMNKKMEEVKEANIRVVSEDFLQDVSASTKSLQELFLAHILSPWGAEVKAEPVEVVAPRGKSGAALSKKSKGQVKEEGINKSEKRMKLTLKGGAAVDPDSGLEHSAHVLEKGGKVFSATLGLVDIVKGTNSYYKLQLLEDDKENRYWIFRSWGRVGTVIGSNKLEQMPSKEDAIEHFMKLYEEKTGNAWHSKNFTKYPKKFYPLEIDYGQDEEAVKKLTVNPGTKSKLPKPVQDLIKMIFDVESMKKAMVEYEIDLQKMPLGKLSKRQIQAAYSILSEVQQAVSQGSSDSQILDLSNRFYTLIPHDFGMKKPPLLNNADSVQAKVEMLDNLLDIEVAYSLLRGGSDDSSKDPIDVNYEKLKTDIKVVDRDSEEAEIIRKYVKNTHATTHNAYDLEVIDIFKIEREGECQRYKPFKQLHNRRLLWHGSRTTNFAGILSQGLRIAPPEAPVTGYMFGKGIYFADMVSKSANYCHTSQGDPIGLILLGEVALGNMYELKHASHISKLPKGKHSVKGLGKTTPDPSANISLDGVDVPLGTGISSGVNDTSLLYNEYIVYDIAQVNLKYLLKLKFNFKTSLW
PROCEDURE_SUMMARY: PARP1-DNA trapping, fluorescence polarization (FP)
Format: biochemical
MEASUREMENT_PARAMETERS: PARP1, 0.5 hour
PROPERTY_LABEL: pEC50
To interpret pEC50, take it as minus log10 of a concentration measured in moles per litre.

What value of pEC50 has been recorded for this entry: [2H]C([2H])([2H])NC(=O)c1ccc(N2CCN(Cc3cnc4c(N)c(CC)c(=O)[nH]c4c3)CC2)c(F)n1 [Example 4]
8.65

---

TARGET: PARP1 (Homo sapiens)
Construct: purchased BPS 80501
PROCEDURE_SUMMARY: PARP1-DNA trapping, fluorescence polarization (FP)
Format: biochemical
MEASUREMENT_PARAMETERS: PARP1, 2 hour
PROPERTY_LABEL: EC50 (nM)
Dear colleague, please return just the value in nM, with no unit written.

Which measured EC50 value corresponds to [2H]C([2H])([2H])NC(=O)c1ccc(N2CCN(Cc3cnc4c(N)c(CC)c(=O)[nH]c4c3)CC2)c(F)n1 ?
2.86

---

Target protein (sequence): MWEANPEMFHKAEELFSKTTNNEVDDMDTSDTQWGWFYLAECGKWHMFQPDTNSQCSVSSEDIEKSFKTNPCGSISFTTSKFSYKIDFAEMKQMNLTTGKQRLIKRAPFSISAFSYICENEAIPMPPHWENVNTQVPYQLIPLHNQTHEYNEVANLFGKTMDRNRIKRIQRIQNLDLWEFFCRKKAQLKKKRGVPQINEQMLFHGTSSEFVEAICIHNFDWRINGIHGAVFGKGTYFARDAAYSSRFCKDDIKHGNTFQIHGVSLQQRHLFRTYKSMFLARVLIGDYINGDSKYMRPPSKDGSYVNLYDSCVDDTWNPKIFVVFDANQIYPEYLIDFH
PROPERTY_LABEL: pIC50
Scale: negative log10 of molar concentration, which is what pIC50 denotes.

Given [2H]C([2H])([2H])NC(=O)c1ccc(N2CCN(Cc3cnc4c(N)c(CC)c(=O)[nH]c4c3)CC2)c(F)n1 [Example 4] , state its recorded pIC50.
6.37

Can you share its pIC50? I mean this compound: CCc1cc2ncc(CN3CCN(c4ccc(C(=O)NC)nc4)CC3)cc2[nH]c1=O [AZD5305, reference compound]
7.71

---

TARGET: PARP1 (Homo sapiens)
Construct: purchased BPS 80501
PROCEDURE_SUMMARY: PARP1-DNA trapping, fluorescence polarization (FP)
Type: biochemical
MEASUREMENT_PARAMETERS: PARP1, 4 hour
PROPERTY_LABEL: EC50 (nM)
Respond with the bare value in nM.

I am curious: what EC50 value has been reported for [2H]C([2H])([2H])NC(=O)c1ccc(N2CCN(Cc3cnc4c(N)c(CC)c(=O)[nH]c4c3)CC2)c(F)n1 [Example 4] ?
2.99

---

TARGET: PARP7 (Homo sapiens)
Sequence (Q7Z3E1 whole entry): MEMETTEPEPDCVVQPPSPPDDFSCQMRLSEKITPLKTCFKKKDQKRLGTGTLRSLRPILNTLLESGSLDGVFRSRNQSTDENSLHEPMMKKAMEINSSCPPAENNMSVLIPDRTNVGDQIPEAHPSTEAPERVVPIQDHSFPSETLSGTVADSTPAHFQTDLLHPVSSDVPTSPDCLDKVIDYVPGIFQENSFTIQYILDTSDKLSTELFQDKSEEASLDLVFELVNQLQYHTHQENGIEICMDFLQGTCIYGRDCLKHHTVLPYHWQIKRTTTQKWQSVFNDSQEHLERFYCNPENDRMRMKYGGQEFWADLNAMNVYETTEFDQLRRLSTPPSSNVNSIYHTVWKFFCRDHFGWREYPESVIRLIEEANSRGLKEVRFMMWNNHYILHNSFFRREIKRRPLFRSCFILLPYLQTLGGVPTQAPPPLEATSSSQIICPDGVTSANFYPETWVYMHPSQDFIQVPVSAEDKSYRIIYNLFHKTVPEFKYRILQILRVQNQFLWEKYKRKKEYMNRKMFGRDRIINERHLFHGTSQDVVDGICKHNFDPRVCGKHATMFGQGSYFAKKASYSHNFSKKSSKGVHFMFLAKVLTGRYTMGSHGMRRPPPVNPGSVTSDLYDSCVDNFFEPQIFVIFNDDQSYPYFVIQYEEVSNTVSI
pIC50: −log10 of the molar value.
PROPERTY_LABEL: pIC50

Value lookup for pIC50; key = [2H]C([2H])([2H])NC(=O)c1ccc(N2CCN(Cc3cnc4c(N)c(CC)c(=O)[nH]c4c3)CC2)c(F)n1 [Example 4]
< 5.00

---

TARGET: PARP2 (Homo sapiens, UniProt Q9UGN5)
Construct: purchased BPS 80502
Sequence (Q9UGN5 whole entry): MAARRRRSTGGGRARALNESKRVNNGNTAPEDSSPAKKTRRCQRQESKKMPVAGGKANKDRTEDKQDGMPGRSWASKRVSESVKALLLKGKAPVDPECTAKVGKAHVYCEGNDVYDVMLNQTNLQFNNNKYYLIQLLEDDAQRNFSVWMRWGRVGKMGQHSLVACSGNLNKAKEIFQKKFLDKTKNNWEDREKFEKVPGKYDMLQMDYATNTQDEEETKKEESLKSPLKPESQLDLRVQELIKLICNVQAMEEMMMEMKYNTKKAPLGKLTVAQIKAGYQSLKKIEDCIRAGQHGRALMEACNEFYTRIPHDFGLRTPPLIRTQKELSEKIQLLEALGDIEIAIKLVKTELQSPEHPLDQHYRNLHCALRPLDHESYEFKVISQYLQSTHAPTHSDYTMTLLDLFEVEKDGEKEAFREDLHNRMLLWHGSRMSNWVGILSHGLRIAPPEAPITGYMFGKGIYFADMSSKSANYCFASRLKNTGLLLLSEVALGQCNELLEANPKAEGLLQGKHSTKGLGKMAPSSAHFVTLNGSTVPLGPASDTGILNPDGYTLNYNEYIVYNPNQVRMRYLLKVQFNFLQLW
PROCEDURE_SUMMARY: PARP2-DNA trapping, fluorescence polarization (FP)
Format: biochemical
MEASUREMENT_PARAMETERS: PARP2, 1 hour
pEC50: −log10 of the molar value.
PROPERTY_LABEL: pEC50

Look up pEC50: [2H]C([2H])([2H])NC(=O)c1ccc(N2CCN(Cc3cnc4c(N)c(CC)c(=O)[nH]c4c3)CC2)c(F)n1
< 5.00

Just for reference, patent EP4620956A1 is where these values come from.
